# ASSAY TARGET: T1, RAVV GP on rVSV pseudotype (VSV-MARV RAVV GP) (Ravn virus, UniProt Q1PDC7 19-681)
# T1 sequence: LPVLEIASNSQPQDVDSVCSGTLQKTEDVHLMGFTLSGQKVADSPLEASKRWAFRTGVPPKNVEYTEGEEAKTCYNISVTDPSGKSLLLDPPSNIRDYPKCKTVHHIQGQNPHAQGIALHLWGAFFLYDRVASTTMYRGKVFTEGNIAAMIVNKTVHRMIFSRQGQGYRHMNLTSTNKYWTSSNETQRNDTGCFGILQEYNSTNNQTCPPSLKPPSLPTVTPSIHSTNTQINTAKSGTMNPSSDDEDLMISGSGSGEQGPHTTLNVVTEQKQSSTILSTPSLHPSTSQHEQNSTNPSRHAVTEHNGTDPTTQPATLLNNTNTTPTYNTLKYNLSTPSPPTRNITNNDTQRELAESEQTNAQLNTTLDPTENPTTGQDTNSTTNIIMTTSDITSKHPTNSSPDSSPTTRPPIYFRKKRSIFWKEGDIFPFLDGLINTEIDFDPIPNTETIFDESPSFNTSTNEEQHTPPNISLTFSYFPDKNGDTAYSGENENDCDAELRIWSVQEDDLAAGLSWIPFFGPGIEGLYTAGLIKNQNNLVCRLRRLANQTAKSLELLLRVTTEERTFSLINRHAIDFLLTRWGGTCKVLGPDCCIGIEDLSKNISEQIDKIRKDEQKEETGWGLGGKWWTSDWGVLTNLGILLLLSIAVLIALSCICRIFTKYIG
# TEST DESCRIPTION: cell-based or functional assay
Assign NT50 to each entry below.
One number for each entry, in µg/mL.

Examples from the recorded data:
{"BINDER": "R45 (antibody, V domains shown) VH: EVQLVESGGGLAKPGGSLRLSCAASGFTFGDHWMSWVRQAPGNGLQWISAIDRAGGSTFYADSVKGRFTISRENAKNTLYLQIDSLRPEDTAVYFCARDQGRTVGYLDYWGQGVLVTVSS VL: QSALTQPRSVSGSPGQSVTISCTGTSSDIGSYTYVSWYRQHPGTAPKLIIYDVDERPSGVSYRFSGSKSGNTASLTISGLQAEDEADYYCSSYAGRNTWVFGGGTRLTVL", "NT50, µg/mL": 0.27}
{"BINDER": "R79 (antibody, V domains shown) VH: EVQLVESGGGLAKPGGSLRLSCAASGFTFNDYWLFWVRQAPGRGLEWISTINRPGSSTFYADSVKGRFTISRENANNALYLQMDSLRPEDTAVYYCARDQGRTVGYLDYWGQGVLVTVSS VL: QSALTQPRSVSGSPGQSVTISCTGTSSDIGSYSYVSWYQQHPGTAPKLIIYDDSERPSGVSDRFSGSKSGNTASLTISGLQAEDEADYYCSSYAGSNTWVFGGGTRLTVL", "NT50, µg/mL": 0.45}

Would you mind telling me what NT50 value was observed for R53 (antibody, V domains shown) VH: QVQLQESGPGLVKPSETLSLTCAVSGASISSYWWNWIRQPPGKGLEWIGEIYGYSGSTYYSPSLKSRVTISKDASKNQFSLKLSSATAADTAVYYCVRDPLNQDAFDFWGQGLRVTVSS VL: QSALTQPPSVSGSPGQSVTISCTGTSSDIGSYDYVSWYQQHPGKAPKLMMYDVSKRPSGVFDRFSGSKSGNTASLTISGLQADDEAAYFCSSYAGRRILLFGGGTRLTVL ?
0.07
